Recorded IC50 for compounds tested on Serine/threonine-protein kinase PLK1 (Homo sapiens), drawn from a number of studies.

Lookup: May I ask what IC50 has been recorded for CC[C@@H]1C(=O)N(C)c2cnc(-n3ccnc3)nc2N1C(C)C ?
Found: 1 to 10 µM

Lookup: May I ask what IC50 has been recorded for CN(C)C1CCCN(C(=O)c2ccc(-c3c(F)cnc4[nH]c5cnc(-c6cccnc6)cc5c34)cc2)C1 (centres unmarked) ?
Found: 0.1 to 1 µM

Lookup: May I ask what IC50 has been recorded for COc1cc2ncn(-c3nc(-c4cccc(C(=O)N(C)C)c4)c(C(=O)O)s3)c2cc1OC ?
Found: 8.87 µM

Lookup: May I ask what IC50 has been recorded for O=C(c1ccc(-c2c(F)cnc3[nH]c4cnc(-c5cccnc5)cc4c23)cc1)N1CCC(N2CCCC2)C1 (centres unmarked) ?
Found: 0.1 to 1 µM

Lookup: May I ask what IC50 has been recorded for Cc1cc2ncn(-c3nc(-c4ccccc4)c(C(=O)O)s3)c2cc1C ?
Found: 2.49 µM

Lookup: May I ask what IC50 has been recorded for O=C(c1cc(O)ccc1F)c1c[nH]c2nccc(-c3ccccc3)c12 ?
Found: ≤ 10 µM

Lookup: May I ask what IC50 has been recorded for O=C1Nc2cc(-c3cccnc3)ccc2/C1=C\c1ccc2[nH]ncc2c1 ?
Found: > 50 µM

Lookup: May I ask what IC50 has been recorded for C[C@H](Nc1ncc(C#N)c(-c2cnc3c(C4CC4)cccn23)n1)c1ccc([C@H](O)[C@@]2(C)CCCN2C)cc1 ?
Found: 0.0018 µM

---

pIC50: −log10 of the molar value.
Recorded pIC50 for molecules tested on Serine/threonine-protein kinase PLK1 (Homo sapiens, UniProt P53350), drawn from a number of studies.

Lookup: Request body: readout pIC50, system Serine/threonine-protein kinase PLK1 (Homo sapiens, UniProt P53350), query COc1cccc(C(=O)c2c[nH]c3nccc(-c4cccc(N)c4)c23)c1 . Return the value.
Found: ≥ 5.00

Lookup: Request body: readout pIC50, system Serine/threonine-protein kinase PLK1 (Homo sapiens, UniProt P53350), query CC[C@@]12COCCN1c1nc(-c3cnoc3-c3ccccc3)ncc1N(C)C2=O . Return the value.
Found: 4.30 to 5.00

Lookup: Request body: readout pIC50, system Serine/threonine-protein kinase PLK1 (Homo sapiens, UniProt P53350), query CC[C@@H]1C(=O)N(C)c2cnc(Nc3ccc(C(=O)NC4CCN(CCCCC(=O)N[C@@H](CC(C)C)C(=O)OC5CCCC5)CC4)cc3OC)nc2N1C1CCCC1 . Return the value.
Found: > 7.00

Lookup: Request body: readout pIC50, system Serine/threonine-protein kinase PLK1 (Homo sapiens, UniProt P53350), query COc1cc(C(=O)NC2CCN(C)CC2)ccc1Nc1ncc2c(n1)N(C1CCCC1(C)C)CCC(=O)N2C (racemic) . Return the value.
Found: > 6.30

---

Recorded IC50 for molecules tested on Serine/threonine-protein kinase PLK1 (Homo sapiens), drawn from a number of studies.

Lookup: Request body: readout IC50, system Serine/threonine-protein kinase PLK1 (Homo sapiens), query CS(=O)(=O)NCc1ccc(-c2c(F)cnc3[nH]c4cnc(-c5cccnc5)cc4c23)cc1 . Return the value.
Found: 1 to 100 nM

Lookup: Request body: readout IC50, system Serine/threonine-protein kinase PLK1 (Homo sapiens), query CN(C)CCN(C)Cc1ccc2ncn(-c3nc(-c4cccc(Cl)c4)c(C(N)=O)s3)c2c1 . Return the value.
Found: 500 nM

Lookup: Request body: readout IC50, system Serine/threonine-protein kinase PLK1 (Homo sapiens), query CN1CCN(Cc2ccc3ncn(-c4nc(-c5ccccc5Cl)c(C(N)=O)s4)c3c2)CC1 . Return the value.
Found: 346 nM

Lookup: Request body: readout IC50, system Serine/threonine-protein kinase PLK1 (Homo sapiens), query CC1CN(C2CCCC2)c2nc(Nc3ccc(C(=O)NC4CCN(C)CC4)cc3)ncc2N(C)C1=O (racemic) . Return the value.
Found: < 500 nM

Lookup: Request body: readout IC50, system Serine/threonine-protein kinase PLK1 (Homo sapiens), query CC[C@@H]1C(=O)N(C)c2cnc(Nc3ccc(C(=O)NC4CCN(CCNC(=O)N[C@H](C(=O)O)C5CCCCC5)CC4)cc3OC)nc2N1C1CCCC1 . Return the value.
Found: < 100 nM

Lookup: Request body: readout IC50, system Serine/threonine-protein kinase PLK1 (Homo sapiens), query CC1CN(C2CCCC2)c2nc(Nc3cccc(C(=O)Nc4ccncc4)c3)ncc2N(C)C1=O (racemic) . Return the value.
Found: > 5000 nM

Lookup: Request body: readout IC50, system Serine/threonine-protein kinase PLK1 (Homo sapiens), query COc1cc2ncn(-c3nc(-c4cccc(Cl)c4)c(C(=O)Nc4ccncn4)s3)c2cc1OC . Return the value.
Found: 47 nM

Lookup: Request body: readout IC50, system Serine/threonine-protein kinase PLK1 (Homo sapiens), query c1cnc2[nH]c3cnc(-c4ccoc4)cc3c2c1 . Return the value.
Found: > 5000 nM

Lookup: Request body: readout IC50, system Serine/threonine-protein kinase PLK1 (Homo sapiens), query COc1ccc(NC(=O)C2CCN(C(C)=O)CC2)cc1Nc1ncc2c(n1)N(C1CCCC1)CC(C)C(=O)N2C (racemic) . Return the value.
Found: 500 to 5000 nM

Lookup: Request body: readout IC50, system Serine/threonine-protein kinase PLK1 (Homo sapiens), query Cc1n[nH]cc1CNC(=O)c1ccc(-c2c(F)cnc3[nH]c4cnc(-c5cccnc5)cc4c23)cc1 . Return the value.
Found: < 100 nM

Lookup: Request body: readout IC50, system Serine/threonine-protein kinase PLK1 (Homo sapiens), query CC(C)(CNC(=O)c1ccc(-c2c(F)cnc3[nH]c4cnc(-c5cccnc5)cc4c23)cc1)N1CCCC1 . Return the value.
Found: 100 to 1000 nM

Lookup: Request body: readout IC50, system Serine/threonine-protein kinase PLK1 (Homo sapiens), query CN1CCN(NC(=O)c2ccc(-c3c(F)cnc4[nH]c5cnc(-c6cnn(C)c6)cc5c34)cc2)CC1 . Return the value.
Found: > 5000 nM

Lookup: Request body: readout IC50, system Serine/threonine-protein kinase PLK1 (Homo sapiens), query COc1cc2ncn(-c3nc(-c4cccc(O)c4)c(C(=O)O)s3)c2cc1OC . Return the value.
Found: 211 nM

Lookup: Request body: readout IC50, system Serine/threonine-protein kinase PLK1 (Homo sapiens), query COc1cc2ncn(-c3nc(-c4cccc(Cl)c4)c(C(=O)Nc4nccs4)s3)c2cc1OC . Return the value.
Found: 252 nM

Lookup: Request body: readout IC50, system Serine/threonine-protein kinase PLK1 (Homo sapiens), query COc1cc2nccc(Oc3ccc(NC(=O)c4cc(S(C)(=O)=O)n(-c5ccc(F)cc5)n4)c(F)c3)c2cc1OC . Return the value.
Found: ≥ 10000 nM

Lookup: Request body: readout IC50, system Serine/threonine-protein kinase PLK1 (Homo sapiens), query COCCN1CCC(=O)N(C)c2cnc(Nc3ccc(C(=O)NC4CCN(C)CC4)cc3OC)nc21 . Return the value.
Found: 500 to 5000 nM

Lookup: Request body: readout IC50, system Serine/threonine-protein kinase PLK1 (Homo sapiens), query CC[C@@H]1C(=O)N(C)c2cnc(N3CCOc4cc(C(=O)NC5CCN(C)CC5)ccc43)nc2N1C1CCCC1 . Return the value.
Found: 1700 nM

Lookup: Request body: readout IC50, system Serine/threonine-protein kinase PLK1 (Homo sapiens), query CCOc1cnc2[nH]c3cnc(-c4cccnc4)cc3c2c1 . Return the value.
Found: 100 to 1000 nM

Lookup: Request body: readout IC50, system Serine/threonine-protein kinase PLK1 (Homo sapiens), query COc1cc(C(=O)NC2CCN(C)CC2)ccc1Nc1ncc2c(n1)N(C1CCCC1)C1CCCC1C(=O)N2C (racemic) . Return the value.
Found: < 500 nM

Lookup: Request body: readout IC50, system Serine/threonine-protein kinase PLK1 (Homo sapiens), query COc1cc2ncn(-c3nc(-c4cccc(Cl)c4)c(C(N)=O)s3)c2cc1OCCN1CCN(C)CC1 . Return the value.
Found: 61 nM

Lookup: Request body: readout IC50, system Serine/threonine-protein kinase PLK1 (Homo sapiens), query COc1cc(C(=O)NCCCn2ccnc2)ccc1Nc1ncc2c(n1)N(C1CCC1)CCC(=O)N2C . Return the value.
Found: < 500 nM

Lookup: Request body: readout IC50, system Serine/threonine-protein kinase PLK1 (Homo sapiens), query CC[C@@H]1C(=O)N(C)c2cnc(-n3ccnc3-c3nccs3)nc2N1C1CCOCC1 . Return the value.
Found: 1000 to 10000 nM

Lookup: Request body: readout IC50, system Serine/threonine-protein kinase PLK1 (Homo sapiens), query CC(CNC(=O)c1ccc(-c2c(F)cnc3[nH]c4cnc(-c5cccnc5)cc4c23)cc1)N1CCCC1 (centres unmarked) . Return the value.
Found: 100 to 1000 nM

Lookup: Request body: readout IC50, system Serine/threonine-protein kinase PLK1 (Homo sapiens), query CC[C@@H]1C(=O)N(C)c2cnc(-c3cn[nH]c3)nc2N1C1CCCC1 . Return the value.
Found: < 1000 nM

Lookup: Request body: readout IC50, system Serine/threonine-protein kinase PLK1 (Homo sapiens), query COc1ccccc1Nc1ncc2c(n1)N(C1CCC1)CCC(=O)N2C . Return the value.
Found: > 5000 nM

Lookup: Request body: readout IC50, system Serine/threonine-protein kinase PLK1 (Homo sapiens), query CCN(CC)CCn1cc(-c2cnc3[nH]c4cnc(-c5cccnc5)cc4c3c2)cn1 . Return the value.
Found: 1000 to 5000 nM
